biological target: human LOXL2 (Homo sapiens, UniProt Q9Y4K0); construct: secreted protein in 10-20x concentrated conditioned media; test: Human LOXL2 Amine Oxidase Activity Assay (Amplex Red fluorescence); details: concentrated conditioned media from CHO cells stably expressing human LOXL2, test compound incubated 2 h at 37° C., pH8, DAP substrate
Structures can show the parent of a compound that is named as a salt.
reportedMetric: IC50

Answer with the recorded IC50 of NCc1cc(=O)c2cccc(O)c2o1 [Compound 1-52, hydrochloride] only. 300 to 1000 nM

Answer with the recorded IC50 of NCc1cc(=O)c2ccc(O)cc2o1 [Compound 1-43, hydrochloride] only. 300 to 1000 nM

----------
Biological target: human LOXL2 (Homo sapiens)
Construct: secreted protein in 10-20x concentrated conditioned media
Sequence (Q9Y4K0 26-774): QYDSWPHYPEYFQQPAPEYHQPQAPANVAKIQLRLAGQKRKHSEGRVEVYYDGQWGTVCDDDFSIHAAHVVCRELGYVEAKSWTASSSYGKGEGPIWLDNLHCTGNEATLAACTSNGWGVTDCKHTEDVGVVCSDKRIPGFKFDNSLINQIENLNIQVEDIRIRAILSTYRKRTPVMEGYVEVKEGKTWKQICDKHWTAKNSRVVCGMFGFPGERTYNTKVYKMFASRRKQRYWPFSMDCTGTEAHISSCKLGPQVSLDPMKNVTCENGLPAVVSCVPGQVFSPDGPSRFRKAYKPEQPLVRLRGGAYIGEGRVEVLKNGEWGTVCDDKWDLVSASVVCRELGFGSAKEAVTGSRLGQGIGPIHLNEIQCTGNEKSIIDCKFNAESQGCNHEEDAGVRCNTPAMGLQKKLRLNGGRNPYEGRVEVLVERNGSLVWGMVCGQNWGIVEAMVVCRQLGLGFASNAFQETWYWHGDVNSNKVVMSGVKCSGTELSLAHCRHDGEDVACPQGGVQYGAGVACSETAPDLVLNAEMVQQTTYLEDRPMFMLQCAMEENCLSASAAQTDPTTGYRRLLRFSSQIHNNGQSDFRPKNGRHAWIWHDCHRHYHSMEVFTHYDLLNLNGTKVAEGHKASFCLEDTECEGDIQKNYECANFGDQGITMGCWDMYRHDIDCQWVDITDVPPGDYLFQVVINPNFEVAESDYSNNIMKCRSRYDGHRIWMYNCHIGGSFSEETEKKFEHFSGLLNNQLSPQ
Assay: Human LOXL2 Amine Oxidase Activity Assay (Amplex Red fluorescence)
Conditions: concentrated conditioned media from CHO cells stably expressing human LOXL2, test compound incubated 2 h at 37° C., pH8, DAP substrate
Structures can show the parent of a compound that is named as a salt.
Parameter IC50: see the listing below.

> print(dat)
                                   compound        measured
1  NCc1cc(=O)c2cccc(Br)c2o1 [Compound 1-50, hydrochloride]  300 to 1000 nM
2  Cn1cc(-c2ccc3c(=O)cc(CN)oc3c2)nn1 [Compound 1-39, hydrochloride]        < 300 nM

Answer with the recorded IC50 of NCc1cc(=O)c2cc(-c3cn(-c4ccccc4)nn3)ccc2o1 [Compound 1-14, hydrochloride] only. < 300 nM

Answer with the recorded IC50 of NCc1cc(=O)c2cccc(OCc3cccc(C(=O)Nc4ccccc4)c3)c2o1 [Compound 1-58, hydrochloride] only. > 1000 nM

Answer with the recorded IC50 of NCc1cc(=O)c2ccc(OCc3cn(-c4ccccc4)nn3)cc2o1 [Compound 1-47, hydrochloride] only. < 300 nM

Answer with the recorded IC50 of NCc1cc(=O)c2ccc(Oc3ccccc3)cc2o1 [Compound 1-68, hydrochloride] only. < 300 nM

Answer with the recorded IC50 of NCc1cc(=O)c2cc(C(=O)NCCn3cncn3)ccc2o1 [Compound 1-21, hydrochloride] only. 300 to 1000 nM
